Biological target: P. falciparum apicoplast DNA polymerase (Pf-apPOL) (Plasmodium falciparum)
Sequence (Q8ILY1 entry or part of it): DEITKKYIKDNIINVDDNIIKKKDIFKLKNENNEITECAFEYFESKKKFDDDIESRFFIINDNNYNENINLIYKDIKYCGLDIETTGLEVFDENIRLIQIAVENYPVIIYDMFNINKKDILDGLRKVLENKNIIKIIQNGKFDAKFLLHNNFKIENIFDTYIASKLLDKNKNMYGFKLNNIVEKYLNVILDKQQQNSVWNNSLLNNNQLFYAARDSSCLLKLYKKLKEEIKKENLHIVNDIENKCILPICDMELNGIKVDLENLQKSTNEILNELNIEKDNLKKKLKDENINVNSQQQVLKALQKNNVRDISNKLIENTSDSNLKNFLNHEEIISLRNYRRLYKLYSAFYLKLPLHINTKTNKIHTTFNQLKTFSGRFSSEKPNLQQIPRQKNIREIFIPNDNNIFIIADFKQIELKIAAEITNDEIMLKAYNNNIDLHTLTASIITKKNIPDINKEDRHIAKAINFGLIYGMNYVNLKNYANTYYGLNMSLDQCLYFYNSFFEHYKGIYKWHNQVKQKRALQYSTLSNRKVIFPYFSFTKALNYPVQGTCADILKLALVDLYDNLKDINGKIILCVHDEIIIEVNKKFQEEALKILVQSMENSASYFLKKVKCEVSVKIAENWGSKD
Experiment: Fluorescence-based high-throughput DNA polymerase assay (molecular beacon), primary screen and dose-response
Type: biochemical
Settings: DRC-1; 90'; concentration 2.5
value.type: % inhibition Apol 90' (%)
Answers are plain numbers, in %.

The cases that follow already have their % inhibition Apol 90' on record.
Nc1c(S(=O)(=O)O)cc(Nc2ccccc2)c2c1C(=O)c1ccccc1C2=O | 14.8722
CCCCSc1nnc2c(n1)OC(c1ccc([N+](=O)[O-])o1)Nc1ccccc1-2 (stereo not drawn) | 16.1067
O=C1c2ccccc2C(=O)N1Oc1ccc([N+](=O)[O-])c([N+](=O)[O-])c1 | 2.278
O=[N+]([O-])c1ccc(/C=C/c2ccc3ccccc3n2)o1 | 13.3257
Cc1ccc(NC(=O)Cn2ccc3c(=O)[nH]ccc32)cc1F [Molecule 48, O=C(Cn1ccc2c1cc[nH]c2=O)Nc1ccc(c(c1)F)C] | -2.985
O=c1[nH]c2ccc(Br)cc2c(-c2ccccc2)c1C1=NNC(c2ccco2)C1 (stereo not drawn) | 12.887

Batch lookup, % inhibition Apol 90' per entry.
1. COc1ccc(NC(=O)Cn2ccc3c(=O)[nH]ccc32)cc1Cl [Molecule 10, COc1ccc(cc1Cl)NC(=O)Cn1ccc2c1cc[nH]c2=O]
2. NS(=O)(=O)c1ccc(NC(=O)c2ccc(N3C(=O)CCC3=O)cc2)cc1
3. CC(NC(=O)Cc1cc(=O)[nH]c(SCc2cccc(Cl)c2)n1)c1ccccc1 (stereo not drawn)

1: 1.658; 2: -2.372; 3: -5.257

Batch lookup, % inhibition Apol 90' per entry.
1. CSC(C)C(=O)C=CN(C)C (stereo not drawn)
2. Cc1ccc(-n2nnc(C(=O)O)c2-c2ccccn2)c(F)c1

-5.565
0.06529

Record COCC(=O)Nc1c(-c2cccc(F)c2)nc2cc(C)ccn12 , field % inhibition Apol 90': 1.502
